Source of measurements: patent WO2001072771A2

molecular target: soluble human insulin receptor (IR-Fc) (human) (UniProt P06213); test: phage ELISA
Quick rule for you: ratio over background under 2 gets Criterion met, anything else gets Criterion not met.

{"columns": ["binder", "category"],
 "data": [
  ["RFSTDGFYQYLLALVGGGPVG [20E2B-1-A11-IGFR]", "Criterion met"],
  ["QSPVGSSHEDFYDWFFRQVAQSGAHQ [H2CA-3-D6-IGFR]", "Criterion not met"],
  ["LKDGFYDYFWQRLHLGS [NNRPγ-4-B11-IR]", "Criterion met"],
  ["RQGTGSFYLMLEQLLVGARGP [20E2B-4-G11-IGFR]", "Criterion met"],
  ["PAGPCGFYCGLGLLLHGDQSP [20E2B-4-H8-IGFR]", "Criterion met"],
  ["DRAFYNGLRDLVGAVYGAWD [R20 -4-20C11-IR]", "Criterion not met"],
  ["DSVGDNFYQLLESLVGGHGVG [20E2B-3-D6-IGFR]", "Criterion not met"]
]}
